tested on: T-24; experiment: Cytotoxicity against human T24 cells assessed as cell survival at 100 uM after 72 hrs by neutral red dye assay; type: functional; conditions: T-24, 72 h, read-out: Survival

compound.string: CCCCNc1nc(SCC)nc2ncccc12
viability at 100 µM: < 45%
//
compound.string: Cc1ccc(CNc2nc(NCc3ccc(C)cc3)c3cccnc3n2)cc1
viability at 100 µM: < 45%
//
compound.string: CCCCCCCNc1nc(SCC)nc2ncccc12
viability at 100 µM: < 45%
//
compound.string: CCCCCNc1nc(SC(C)C)nc2ncccc12
viability at 100 µM: < 45%
//
compound.string: CCCCNc1nc(SCCCC)nc2ncccc12
viability at 100 µM: < 45%
//
compound.string: CCCCCCNc1nc(SC(C)C)nc2ncccc12
viability at 100 µM: < 45%
//
compound.string: CCCCNc1nc(SC(C)C)nc2ncccc12
viability at 100 µM: < 45%
//
compound.string: Cc1ccc(CNc2ccnc(NCc3ccc(C)cc3)n2)cc1
viability at 100 µM: < 45%
//
compound.string: CCNc1nc(SCC)nc2ncccc12
viability at 100 µM: < 45%
//
compound.string: Clc1ccc(CNc2ccnc(NCc3ccc(Cl)cc3)n2)cc1
viability at 100 µM: < 45%
//
compound.string: Clc1ccc(CNc2nc(NCc3ccc(Cl)cc3)c3ccccc3n2)cc1
viability at 100 µM: < 45%
//
compound.string: CCCCCCNc1nc(SCCCCC)nc2ncccc12
viability at 100 µM: < 45%
//
compound.string: c1ccc(CCNc2ccnc(NCCc3ccccc3)n2)cc1
viability at 100 µM: < 45%

====

tested on: T-24; assay: Cytotoxicity against human T24 cells assessed as cell survival at 100 uM after 72 hrs by neutral red dye assay; assay type: functional; conditions: T-24, 72 h, read-out: Survival
List of viability at 100 µM values.

compound.string: c1ccc(CNc2ccnc(NCc3ccccc3)n2)cc1
viability at 100 µM: < 45%

compound.string: Cc1ccc(CNc2nc(NCc3ccc(C)cc3)c3ccccc3n2)cc1
viability at 100 µM: < 45%

compound.string: Brc1ccc(CCNc2nc(NCCc3ccc(Br)cc3)c3cccnc3n2)cc1
viability at 100 µM: < 45%

compound.string: CCCCNc1nc(NCCCC)c2ccccc2n1
viability at 100 µM: < 45%

compound.string: c1ccc(CCCCNc2nc(NCCCCc3ccccc3)c3ccccc3n2)cc1
viability at 100 µM: < 45%

compound.string: CCCCCCNc1nc(NCCCCCC)c2cccnc2n1
viability at 100 µM: < 45%

====

List of pIC50 values.
system: MDA-MB-231; experiment: Cytotoxicity against human MDA-MB-231 cells after 72 hrs by neutral red dye assay; assay type: functional, cell-based; details: MDA-MB-231, 72 h
pIC50: −log10 of the molar value.
measurement.kind: pIC50

compound.string: CCCCCCCNc1nc(SCC)nc2ncccc12
reported: 5.59
//
compound.string: CCCCCCNc1nc(SCC)nc2ncccc12
reported: 5.85
//
compound.string: c1ccc(CCCNc2ccnc(NCCCc3ccccc3)n2)cc1
reported: 6.44
//
compound.string: CCCCCCNc1nc(SC(C)C)nc2ncccc12
reported: 5.35
//
compound.string: COc1ccc(CNc2nc(NCc3ccc(OC)cc3)c3cccnc3n2)cc1
reported: 5.54
//
compound.string: CCCCNc1nc(SCCCC)nc2ncccc12
reported: 5.08
//
compound.string: CCNc1nc(SCC)nc2ncccc12
reported: 4.73
//
compound.string: c1ccc(CNc2nc(NCc3ccccc3)c3cccnc3n2)cc1
reported: 4.99
//
compound.string: CCCCCCNc1nc(NCCCCCC)c2cccnc2n1
reported: 5.68
//
compound.string: Cc1ccc(CCNc2nc(NCCc3ccc(C)cc3)c3ccccc3n2)cc1
reported: 5.33
//
compound.string: CCCCCNc1nc(NCCCCC)c2cccnc2n1
reported: 5.92
//
compound.string: Cc1ccc(CNc2nc(NCc3ccc(C)cc3)c3cccnc3n2)cc1
reported: 5.49
//
compound.string: c1ccc(CCCCNc2nc(NCCCCc3ccccc3)c3cccnc3n2)cc1
reported: 5.96
//
compound.string: c1ccc(CCNc2ccnc(NCCc3ccccc3)n2)cc1
reported: 5.52
//
compound.string: Cc1ccc(CNc2nc(NCc3ccc(C)cc3)c3ccccc3n2)cc1
reported: 5.26
//
compound.string: CCCCCNc1nc(NCCCCC)c2ccccc2n1
reported: 5.50
//
compound.string: Brc1ccc(CCNc2nc(NCCc3ccc(Br)cc3)c3ccccc3n2)cc1
reported: 4.98
//
compound.string: CCCCNc1nc(SCC)nc2ncccc12
reported: 5.04
//
compound.string: Clc1ccc(CNc2ccnc(NCc3ccc(Cl)cc3)n2)cc1
reported: 5.70
//
compound.string: COc1ccc(CNc2nc(NCc3ccc(OC)cc3)c3ccccc3n2)cc1
reported: 5.41
//
compound.string: Brc1ccc(CCNc2nc(NCCc3ccc(Br)cc3)c3cccnc3n2)cc1
reported: 5.57
//
compound.string: c1ccc(CCNc2nc(NCCc3ccccc3)c3cccnc3n2)cc1
reported: 5.92
//
compound.string: Cc1ccc(CNc2ccnc(NCc3ccc(C)cc3)n2)cc1
reported: 4.72
//
compound.string: CCCNc1nc(NCCC)c2ccccc2n1
reported: 5.35
//
compound.string: CCCCCNc1nc(SCC)nc2ncccc12
reported: 5.89
//
compound.string: CCCCCCCNc1nc(SC(C)C)nc2ncccc12
reported: 5.15
//
compound.string: Clc1ccc(CNc2nc(NCc3ccc(Cl)cc3)c3cccnc3n2)cc1
reported: 5.08
//
compound.string: c1ccc(CNc2ccnc(NCc3ccccc3)n2)cc1
reported: 5.72
//
compound.string: c1ccc(CNc2nc(NCc3ccccc3)c3ccccc3n2)cc1
reported: 5.75
//
compound.string: c1ccc(CCCCNc2nc(NCCCCc3ccccc3)c3ccccc3n2)cc1
reported: 5.91
//
compound.string: Clc1ccc(CNc2nc(NCc3ccc(Cl)cc3)c3ccccc3n2)cc1
reported: 5.37
//
compound.string: CCCCCCNc1nc(SCCCCC)nc2ncccc12
reported: 5.05
//
compound.string: CCCCCCNc1nc(SCCCC)nc2ncccc12
reported: 5.92
//
compound.string: CCCCCNc1nc(SCCCC)nc2ncccc12
reported: 5.20
//
compound.string: c1ccc2c(CCNc3nc(NCCc4c[nH]c5ccccc45)c4cccnc4n3)c[nH]c2c1
reported: 5.29
//
compound.string: CCCCNc1nc(NCCCC)c2ccccc2n1
reported: 5.96
//
compound.string: c1ccc(CCCNc2nc(NCCCc3ccccc3)c3ccccc3n2)cc1
reported: 5.38
//
compound.string: COc1ccc(CNc2ccnc(NCc3ccc(OC)cc3)n2)cc1
reported: 5.82
//
compound.string: CCCCNc1nc(SC(C)C)nc2ncccc12
reported: 4.80
//
compound.string: c1ccc(CCNc2nc(NCCc3ccccc3)c3ccccc3n2)cc1
reported: 5.66
//
compound.string: CCCCCNc1nc(SC(C)C)nc2ncccc12
reported: 5.25
//
compound.string: c1ccc(CCCNc2nc(NCCCc3ccccc3)c3cccnc3n2)cc1
reported: 5.24
//
compound.string: CCCCCCNc1nc(NCCCCCC)c2ccccc2n1
reported: 5.12

====

tested on: MDA-MB-231; assay: Induction of apoptosis in human MDA-MB-231 cells assessed as DNA fragmentation after 24 hrs by ELISA relative to control; format: functional
Active and inactive are the calls of the source. No cut-off for these calls is given here.

compound.string: COc1ccc(CNc2nc(NCc3ccc(OC)cc3)c3ccccc3n2)cc1
Activity: inactive
--
compound.string: Cc1ccc(CNc2nc(NCc3ccc(C)cc3)c3ccccc3n2)cc1
Activity: inactive
--
compound.string: c1ccc(CCCCNc2nc(NCCCCc3ccccc3)c3cccnc3n2)cc1
Activity: inactive
--
compound.string: c1ccc(CNc2nc(NCc3ccccc3)c3cccnc3n2)cc1
Activity: inactive
--
compound.string: c1ccc(CNc2nc(NCc3ccccc3)c3ccccc3n2)cc1
Activity: inactive
--
compound.string: CC(C)Sc1nc(NCCCO)c2cccnc2n1
Activity: inactive
--
compound.string: c1ccc2c(CCNc3nc(NCCc4c[nH]c5ccccc45)c4cccnc4n3)c[nH]c2c1
Activity: inactive
--
compound.string: Clc1ccc(CNc2nc(NCc3ccc(Cl)cc3)c3ccccc3n2)cc1
Activity: inactive
--
compound.string: CCCCNc1nc(NCCCC)c2ccccc2n1
Activity: inactive
--
compound.string: c1ccc(CCCCNc2nc(NCCCCc3ccccc3)c3ccccc3n2)cc1
Activity: inactive
--
compound.string: CCCCCCNc1nc(NCCCCCC)c2ccccc2n1
Activity: inactive

====

test: Cytotoxicity against human CRL8799 cells assessed as cell survival at 20 to 100 uM after 72 hrs by neutral red dye assay; format: cell-based; details: read-out: Survival

compound.string: Brc1ccc(CCNc2nc(NCCc3ccc(Br)cc3)c3cccnc3n2)cc1
output.unit: %
viability at 72 h, up to 100 µM: 90

compound.string: Cc1ccc(CNc2nc(NCc3ccc(C)cc3)c3ccccc3n2)cc1
output.unit: %
viability at 72 h, up to 100 µM: 13

compound.string: c1ccc(CCNc2nc(NCCc3ccccc3)c3cccnc3n2)cc1
output.unit: %
viability at 72 h, up to 100 µM: 0

compound.string: CCCCCNc1nc(NCCCCC)c2cccnc2n1
output.unit: %
viability at 72 h, up to 100 µM: 100

compound.string: c1ccc(CNc2nc(NCc3ccccc3)c3ccccc3n2)cc1
output.unit: %
viability at 72 h, up to 100 µM: 89

compound.string: COc1ccc(CNc2nc(NCc3ccc(OC)cc3)c3ccccc3n2)cc1
output.unit: %
viability at 72 h, up to 100 µM: 0

compound.string: CCCCCNc1nc(NCCCCC)c2ccccc2n1
output.unit: %
viability at 72 h, up to 100 µM: 4

compound.string: CCCCCNc1nc(SC(C)C)nc2ncccc12
output.unit: %
viability at 72 h, up to 100 µM: 100

compound.string: COc1ccc(CNc2ccnc(NCc3ccc(OC)cc3)n2)cc1
output.unit: %
viability at 72 h, up to 100 µM: 0

compound.string: c1ccc(CNc2ccnc(NCc3ccccc3)n2)cc1
output.unit: %
viability at 72 h, up to 100 µM: 22

compound.string: c1ccc(CCCCNc2nc(NCCCCc3ccccc3)c3ccccc3n2)cc1
output.unit: %
viability at 72 h, up to 100 µM: 6

compound.string: c1ccc(CCCNc2nc(NCCCc3ccccc3)c3ccccc3n2)cc1
output.unit: %
viability at 72 h, up to 100 µM: 87

compound.string: CCCCCCNc1nc(NCCCCCC)c2ccccc2n1
output.unit: %
viability at 72 h, up to 100 µM: 2

compound.string: CCCCCNc1nc(SCC)nc2ncccc12
output.unit: %
viability at 72 h, up to 100 µM: 88

compound.string: c1ccc(CNc2nc(NCc3ccccc3)c3cccnc3n2)cc1
output.unit: %
viability at 72 h, up to 100 µM: 85

compound.string: c1ccc(CCNc2nc(NCCc3ccccc3)c3ccccc3n2)cc1
output.unit: %
viability at 72 h, up to 100 µM: 92

compound.string: c1ccc(CCCNc2nc(NCCCc3ccccc3)c3cccnc3n2)cc1
output.unit: %
viability at 72 h, up to 100 µM: 0

compound.string: Cc1ccc(CNc2ccnc(NCc3ccc(C)cc3)n2)cc1
output.unit: %
viability at 72 h, up to 100 µM: 6
